Measured AUC(0-inf), listed per entry for reference.
assay: AUC infinity in Sprague-Dawley rat at 3 mg/kg, po measured upto 24 hrs post dose by LC/MS/MS analysis; assay type: ADME, organism-based; set-up: time < 24 hrs, dose 3 mg/kg, route po; conditions: in vivo
Measured metric: AUC(0-inf) (µM·h)

> print(dat)
                                     smiles  unit.name  recorded.measurement
1  C[C@@H]1CN(c2ccc(-c3n[nH]c4cnc(N5[C@H](C)CN(C(=O)N6CCCC6)C[C@@H]5C)nc34)cn2)CCN1       µM·h                 0.669
2  COC(=O)N1C[C@@H](C)N(c2ncc3[nH]nc(-c4ccc(N5CCN(C)CC5)cc4)c3n2)[C@@H](C)C1       µM·h                  4.05
3  COC(=O)N1C[C@@H](C)N(c2ncc3[nH]nc(-c4ccc(N5CCN[C@H](C)C5)nc4)c3n2)[C@@H](C)C1       µM·h                 0.441

Reference source for all entries: ChEMBL document CHEMBL5120943
